test system: T-cell; assay: Compound was tested for potency against anti-CD3/anti-CD28 induced PBL proliferation of human peripheral blood T-cells
I'd be grateful if you could share measured IC50 for these entries.
Give bare numbers, in µM.

Use the examples below as a reference point.
                                     smiles  observation_type  readout_number
0         Cc1cccc(Cl)c1Nc1nc2ccccc2n2cncc12              IC50               7
1            Brc1ccccc1Nc1nc2ccccc2n2cncc12              IC50              17
2  COc1ccc2c(nc(Nc3c(C)cccc3Cl)c3cncn32)c1OC              IC50            0.67

With those in mind, consider the next compound.
Enquiry: Request body: readout IC50, system T-cell, query `Cc1cccc(C)c1Nc1nc2ccccc2n2cncc12` . Return the value.
Return: 3

====

Please provide measured log10 of IC50 for the entries that follow.
biological target: Tyrosine-protein kinase Lck (Homo sapiens, UniProt P06239)
Sequence (P06239 whole entry): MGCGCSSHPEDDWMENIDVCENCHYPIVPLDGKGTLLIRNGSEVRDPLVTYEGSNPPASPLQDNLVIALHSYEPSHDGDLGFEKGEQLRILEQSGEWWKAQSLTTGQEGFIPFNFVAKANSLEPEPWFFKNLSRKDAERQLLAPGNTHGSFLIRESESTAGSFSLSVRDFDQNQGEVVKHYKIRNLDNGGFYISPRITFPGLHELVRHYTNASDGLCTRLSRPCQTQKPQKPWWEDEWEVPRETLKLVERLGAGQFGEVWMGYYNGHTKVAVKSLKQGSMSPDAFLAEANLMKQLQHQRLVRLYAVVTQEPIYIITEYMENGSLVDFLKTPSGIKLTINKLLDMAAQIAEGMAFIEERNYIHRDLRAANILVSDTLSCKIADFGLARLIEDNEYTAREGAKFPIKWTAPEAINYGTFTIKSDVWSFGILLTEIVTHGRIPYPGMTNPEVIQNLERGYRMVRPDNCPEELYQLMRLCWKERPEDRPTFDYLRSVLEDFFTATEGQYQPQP
Base-10 log of IC50, unit nM.

In [3]: df
Out[3]:
                                     smiles                             system_tested  readout_number
0   O=C(Nc1nc2ccccc2n2cncc12)c1c(Cl)cccc1Cl  Tyrosine-protein kinase Lck (Homo sapiens, UniProt P06239)            2.91
1    Cc1cc(C)c(Nc2nc3ccccc3n3cncc23)c(Cl)c1  Tyrosine-protein kinase Lck (Homo sapiens, UniProt P06239)            1.48
2         Cc1cccc(Cl)c1Nc1nc2ccccc2n2cncc12  Tyrosine-protein kinase Lck (Homo sapiens, UniProt P06239)            0.95
3  COc1ccc2c(nc(Nc3c(C)cccc3Cl)c3cnc(CCCO)n32)c1OC  Tyrosine-protein kinase Lck (Homo sapiens, UniProt P06239)            1.84
4            c1cncc(Nc2nc3ccccc3n3cncc23)c1  Tyrosine-protein kinase Lck (Homo sapiens, UniProt P06239)            2.91

Report log10 of IC50 for each item below.
1. Brc1cccc(Br)c1Nc1nc2ccccc2n2cncc12
2. COc1ccc2c(nc(Nc3c(C)cccc3Cl)c3cnc(CO)n32)c1OC
3. c1ccc(Nc2nc3ccccc3n3cncc23)cc1
4. Brc1ccccc1Oc1nc2ccccc2n2cncc12
5. Cc1ncn2c1c(Nc1ccccc1Cl)nc1ccccc12
6. Cc1ncc2c(Nc3ccccc3Br)nc3ccccc3n12
7. CCCNc1nc2ccccc2n2cncc12
8. COc1ccccc1Nc1nc2ccccc2n2cncc12

Return:
[1.70, 0.79, 2.95, 3.57, 1.48, 2.26, 3.43, 3.74]

I would be grateful if you could provide log10 of IC50 for each of the following entries.
1. Clc1cccc(CCNc2nc3ccccc3n3cncc23)c1
2. COc1ccc2c(nc(Nc3c(C)cccc3Cl)c3cncn32)c1OC
3. COc1ccc2c(nc(Nc3c(C)cccc3Cl)c3cnc(/C=N/O)n32)c1OC
4. O=C(Nc1nc2ccccc2n2cncc12)c1ccccc1Br
5. CCc1cccc(CC)c1Nc1nc2ccccc2n2cncc12
6. Cc1cc(C)c(Nc2nc3ccccc3n3cncc23)c(C)c1

Return:
1. 3.64
2. 0.30
3. 0.63
4. 1.78
5. 3.23
6. 1.60

Enquiry: Field request: log10 of IC50 | item: `Clc1cccc(Cl)c1Nc1nc2ccccc2n2cncc12`
Return: 0.95
